# System: MOLT-4
# measurement-description: NCI tumour cell line growth inhibition, 48 h
Calls of active or inactive are those of the source. Rule as the data show it: active = GI50 up to about 1.1 µM and inactive = higher.
Can you answer with just one of these options? yes (1) (active), no (0) (inactive)

Record excerpt, results attached:
>>> answer_label("O=C1c2ccccc2N2Oc3ccccc3C12c1ccccc1 (stereo not given)")
"no (0)"
>>> answer_label("N#CC12COC3(CCCCC3C1(C#N)C#N)OC2=N (stereo not given)")
"no (0)"

Given CCN(CC)CCCNc1nc(=O)[nH]c(C)c1C(=O)Nc1ccc2c(c1)c1ccccc1n2CC , state the outcome it received in this test. no (0)

How about this compound: COc1cc2c(cc1OC)-c1cc3cc(OC)c(OC)cc3c(=O)n1CC2 no (0)

How about this compound: O=C(NNC(=S)Nc1ccc(Br)cc1)c1cc(-c2ccccc2)nc2ccccc12 no (0)
